measurement-type: melting point

Below, each entry is followed by its recorded melting point result.
[[record]]
compound_string = "C=CC/C=C(\\C(=O)O)c1cc(OC)c(O)c2c(Cc3ccccc3)cccc12"
value = "156 to 158 °C"

[[record]]
compound_string = "CC(C)c1cccc(S(=O)(=O)n2c(Cc3ccc(C(=O)O)cc3)cc3cc(C(F)(F)F)ccc32)c1"
value = "175 °C"

[[record]]
compound_string = "CCOC(=O)c1ncn2c1CN(C)C(=O)c1c(C)cccc1-2"
value = "146 to 147 °C"


The reported melting point of the compound CCOc1nc(C(F)(F)F)cc(=O)n1-c1cc(OCCON=C(C)C)c(Br)cc1F was 131 to 132 °C

The compound listed as Clc1ncnc(Cl)c1-c1ccc(-c2ccccc2)cc1 has a reported melting point of 144 °C

Documented melting point of COC(=O)C(=CNC1CC1)C(=O)c1cc(F)c(Cl)cc1OC : 128 to 132 °C

For reference, reported melting point for Cc1cc(-n2ccnc2)c2cccc(OCc3c(Cl)ccc(S(=O)(=O)N4CCC[C@H]4C(=O)N4CCN(c5ccccc5)CC4)c3Cl)c2n1 stands at 88 °C

Per the record, O=C(O)Cc1coc2cc(OCc3cccc(OCc4ccc(C(F)(F)F)cc4)c3)ccc12 has melting point of 155 to 157 °C

melting point measured on Cn1c(CC(=O)O)ccc1C(=O)c1ccc(N)cc1 = 173 to 175 °C

* * *

This listing pairs molecules with measured melting point.

In the examples that follow, each entry is paired with its recorded melting point.
[[record]]
molecule = "COc1ccc2c3c1OC1C(O)C(C)(C)CC4C(C2)N(C)CCC341 (stereo not given)"
value = "> 265 °C"

[[record]]
molecule = "COC(=O)c1ccc(-c2nc3c(O)cccc3s2)cc1"
value = "215 to 219 °C"


Now consider a different molecule.
What the record says about O=C(CCN1CCNC1=O)N1CCC(C2c3ncc(Br)cc3CCc3cc(Cl)cc(Br)c32)CC1 (single isomer, unassigned; (+)) : melting point is 202 to 203 °C

* * *

Reported melting point by item:

[[record]]
molecule = "Cc1nc(N(C)c2ccccc2)n2ncc(C(=O)c3ccccc3)c2n1"
value = "121 °C"

[[record]]
molecule = "O=C(Cc1ccccc1)NN(C1=NCCS1)c1ccccc1"
value = "121 to 124 °C"

[[record]]
molecule = "CCCCSc1nc(=O)n(C(=O)NC)s1"
value = "102 °C"


Short answer for N#CCC#CC1(c2ccc(Cl)cc2)CC1 : melting point was 62 to 64 °C

Recorded result, CC(C)C1OC(=Nc2ccccn2)c2c1nc1c(C(F)(F)F)cccc1c2O (stereo unspecified) , melting point: 178 to 180 °C

Noted for NC(=O)c1ccc(N2CCN(Cc3cn4cc(Br)ccc4n3)CC2)cc1 : its melting point reads 238 to 239 °C

* * *

Recorded melting point for the following compounds

Before answering, review these 5 worked examples.
[[record]]
compound = "CC(C)Oc1ccc(-n2c(-c3ccc(C(=O)O)cc3)c(C(=O)O)c3cc(Oc4ccc(C(F)(F)F)cc4)ccc32)cc1"
measurement_type = "melting point"
value = "268 to 270 °C"

[[record]]
compound = "O=C1Nc2ccccc2Oc2ncccc21"
measurement_type = "melting point"
value = "250 to 253 °C"

[[record]]
compound = "O=C1c2ccccc2C(=O)N1OC/C=C/C=C/c1ccc(F)cc1"
measurement_type = "melting point"
value = "155 to 157 °C"

[[record]]
compound = "Oc1ccccc1C=Nc1cccc(Cl)c1Cl"
measurement_type = "melting point"
value = "89 to 90 °C"

[[record]]
compound = "CC(C)(C)OC(=O)C(C)(C)Oc1ccc(N)cc1"
measurement_type = "melting point"
value = "87 to 88 °C"


Pending compound:
For reference, reported melting point for C#Cc1ccc(-c2c(C)n[nH]c(=O)c2-c2c(F)cc(F)cc2F)cc1 stands at 252 to 254 °C

* * *

The entries below come with measured melting point values attached.

Here's what some known entries look like.
[[record]]
compound = "CCc1oc(C2CCCCC2)nc1CC(=O)O"
value = "101 to 102 °C"

[[record]]
compound = "O=c1[nH]c(NCCc2c[nH]cn2)nc2c1ncn2C1CC(O)C(CO)O1 (stereo unspecified)"
value = "220 to 222 °C"

[[record]]
compound = "CC(=O)N(C(C)=O)c1ccccc1Cn1[nH]c2ccccc2c1=O"
value = "114 to 115 °C"

[[record]]
compound = "OC(CN1CCC(O)(Cc2ccccc2)CC1)c1ccc(Cl)cc1 (stereo unspecified)"
value = "151 to 152 °C"

[[record]]
compound = "CCOc1cc2ncc(C#N)c(Nc3ccc(OCc4cccc(F)c4)c(Cl)c3)c2cc1NC(=O)/C=C/CN(C)C"
value = "165 to 167 °C"

[[record]]
compound = "Cc1ccc(CC(O)=S)cc1"
value = "94.5 to 95 °C"

[[record]]
compound = "CC(=O)Nc1ncsc1C"
value = "62 to 64 °C"

[[record]]
compound = "COC(=O)c1ccc(OCC2CC(=O)N(c3ccc(OS(C)(=O)=O)cc3)C2)cc1 (stereo unspecified)"
value = "111 to 113 °C"

[[record]]
compound = "Cc1ccc2cccc(OCc3c(C)ccc(NC(=O)CN4C(=O)c5ccccc5C4=O)c3C)c2n1"
value = "266 to 268 °C"

[[record]]
compound = "COc1cc([N+](=O)[O-])c(O)c(OC)c1OC"
value = "72 to 73 °C"


Entry Cc1ccc(-c2cccc(/C=C/C(=O)Nc3ccc(CCl)cc3)c2)cc1 — recorded melting point = 178 to 180 °C

Lab book: melting point of O=C1N[C@H](Cc2ccc(Oc3ccccc3)cc2)[C@H](c2ccc(F)cc2)O1 (racemic) noted as 144 to 145 °C

What the record says about CC(C)Oc1ccc(N(N)C(=O)N(C)C)cc1Cl : melting point is 73 to 74 °C

Recorded result, Cc1ccc(C(=O)c2ccc(Cc3ccc(N)cn3)n2C)cc1 , melting point: 104 to 107 °C

Entry CC(c1oc2ccccc2c(=O)c1-c1cccc(F)c1)n1nc(-c2ccc(N(C)C)cc2)c2c(N)ncnc21 (stereo unspecified) — recorded melting point = 214 to 217 °C

Please fill in: melting point reported for Clc1ccc2ccc(COc3ccc(CN4CCc5cccc(CCc6nnn[nH]6)c54)cc3)nc2c1 = 69 to 73 °C

Value of measured melting point for the entry CSC1=Nc2cccnc2Nc2cscc21 : 138 to 140 °C

Per the records, this compound ( NCCCCNC(=O)N1c2ccccc2C=Cc2ccccc21 ) has melting point equal to 114 to 116 °C

Measured melting point, COc1ccc2cc(-c3cccnc3)ccc2n1 : 89 to 91 °C

The compound listed as O=C1Nc2ccc(Br)cc2C2(CCCCC2)O1 has a reported melting point of 208 to 210 °C

melting point in this record for Cc1oc(-c2ccccc2)nc1COc1ccc2cc(C=CC=C3SC(=O)NC3=O)ccc2c1 : 267 to 268 °C

* * *

melting point listing for selected compounds.

Memo: O=C(O)[C@@H](CCCN1C(=O)c2ccccc2C1=O)NS(=O)(=O)c1ccc(Oc2ccccc2)cc1 , reported melting point: 139 to 140 °C

Record CC(=O)c1c(-c2ccc(O)c3ccccc23)oc2ccccc12 , field melting point: 212 to 216 °C

Notebook: CN1C[C@H](CN2CCN(C(c3ccccc3)c3ccccc3)CC2)C[C@@H]2c3cccc4[nH]c(Cl)c(c34)C[C@H]21 , melting point read as 250 °C

// sample COc1ccc(N2CCN(c3ccncc3)CC2)cc1 , its melting point was 165 to 167 °C

What the record says about Nc1ccc(S(=O)(=O)c2cc(-c3ccc4ccccc4c3)nc(N3CCCC3)c2)cc1 : melting point is 244 to 246 °C

Sure, the documented melting point for CC(C)CN1C(=O)[C@@H](CC(=O)O)N[C@H](c2ccccc2Cl)c2cc(Cl)ccc21 is 184 to 188 °C

Documented melting point of COC(=O)C1CCCN(COS(C)(=O)=O)c2c1cc(O)c1ccccc21 (centres undefined) : 113 to 115 °C

Entry CCCCCCCc1ccc(CCCCCCC)c(C#N)c1C#N , melting point reported as 4.6 °C

Per the record, COc1ccccc1NC(=O)Nc1nc(Cl)nc(N(CCC(=O)O)Cc2cccc(C)c2)n1 has melting point of 205 °C

* * *

Property: melting point; scope: individual molecules

Field: example entries. Status: answers known.
[[record]]
molecule = "COC(=O)C1=C(C)NC(C)=C(C#N)C1c1cccc(N)c1 (stereo unspecified)"
value = "234 to 235 °C"

[[record]]
molecule = "CN1C(=O)SC(S(=O)(=O)c2cccc3c(Br)cccc23)C1=O (stereo unspecified)"
value = "150 to 151 °C"

[[record]]
molecule = "CCCCCCc1ccc(C(=O)CCCCC(=O)O)cc1"
value = "77 to 79 °C"

[[record]]
molecule = "COc1cccc(NC(=O)Nc2ccc(N3CCN(C(=O)Nc4ccc(OCCO)cc4C(F)(F)F)CC3)cc2)c1OC"
value = "135 to 138 °C"

[[record]]
molecule = "COC(=O)c1cc(S(C)(=O)=O)c(NS(=O)(=O)c2sc3ccc(Cl)cc3c2C)cc1C"
value = "205 to 207 °C"


CCCC/C(=C\C(=O)O)c1cnc(CCCC)n1Cc1ccccc1Cl yielded melting point of 131 to 132 °C

Data point: C=COCCCCOC(=O)CCCCCCCCCCC(=O)OCCCCOC=C ; melting point = 42 to 43 °C

The reported value for O=C(O)C(CBr)N(C(=O)c1ccccc1)N1C(=O)CCC1=O (stereo unspecified) in terms of melting point is 174 to 177 °C

Lab note: COc1c(Cl)nc(C(=O)O)c(Cl)c1N gave melting point of 154 to 156 °C

Item: CN1CCN(c2cnc([N+](=O)[O-])c(Cl)n2)CC1 | melting point: 50 °C

melting point for CC(C)(C)NCCCCOc1ccccc1C(=O)Nc1cccc2[nH]ccc12 is 147 °C

The molecule identified as COc1cc(OC)c2c(=O)[nH]c(-c3cc(C)c(OCCOCc4ccccc4)c(C)c3)nc2n1 registered its melting point at 204 to 206 °C

Entry CCc1c(Oc2cnc(N)nc2N)cc(Br)c2c1OCCO2 , melting point reported as 291 to 293 °C

The recorded melting point for entry N#CC1=C(c2ccc(Cl)cc2)NC(C(F)(F)F)C1 (stereo unspecified) equals 158 to 160 °C

The molecule listed as O=C(NCCN1CCC2(CC1)C(=O)NCN2c1ccccc1)c1ccc(F)cc1[N+](=O)[O-] has a reported melting point of 160 °C

Looking up CC(N1C(=O)C(=O)N(c2ccc(C#N)cc2)C1=S)C(C)(C)C (stereo unspecified) , I found its melting point recorded as 198 °C

Kindly note the recorded melting point for CNc1nccc2c1nnn2Cc1ccccc1 , which is 269 to 273 °C

GET /value?item= CCn1ncc2c3ncn(CCC(C)C)c(=O)c3cnc21 &field=melting point returns 165 to 167 °C

melting point in this record for COC1(OC)C=Cc2cc(Cc3cnc(N)nc3N)cc(OCC3CC3)c2O1 : 204 to 206 °C

According to the records, this molecule COc1cc2ncnc(Nc3ccc4[nH]ccc4c3)c2cc1I displays melting point of 260 to 267 °C

So, CCOC1C=CC(=O)N1S(=O)(=O)c1ccccc1 (stereo unspecified) ? Its melting point was 117 to 119 °C
